Known PROTEASE % INHIB. of a selection of molecules
Target: HIV-1 protease (Human immunodeficiency virus type 1 group M subtype B, UniProt P04585)
Assay: biochemical
Conditions: Table II; enzyme HIV-1; DOSE 0.370 (unit not given)

# MOLECULE, PROTEASE % INHIB.
records = [
    ("CCC[C@@]1(CCc2ccccc2)CC(O)=C([C@@H](c2cccc(NS(=O)(=O)c3cn(C)cn3)c2)C(C)(C)C)C(=O)O1 (single isomer, unassigned) [Example 308]", "108.14%"),
    ("CCC[C@@]1(CCc2ccc(F)cc2)CC(O)=C([C@H](c2cccc(NS(=O)(=O)c3cn(C)cn3)c2)C(C)(C)C)C(=O)O1 (single isomer, unassigned) [Example 351]", "< 10%"),
    ("CCCC1(CCc2ccccc2)CC(O)=C(C(c2cccc(NS(=O)(=O)c3ccc(C(F)(F)F)cn3)c2)C(C)(C)C)C(=O)O1 (stereo not drawn) [Example 293]", "77.51%"),
    ("Cn1cnc(S(=O)(=O)Nc2cccc(C(C3=C(O)CC(CCc4ccccc4)(CCc4ccccc4)OC3=O)C(C)(C)C)c2)c1 (stereo not drawn) [Example 343]", "76.83%"),
    ("CC(C)(C)C(C1=C(O)CC(CCc2ccccc2)(CCc2ccccc2)OC1=O)c1cccc(NS(=O)(=O)c2ccc(C#N)cn2)c1 (stereo not drawn) [Example 344]", "72.84%"),
]

Prompt line: Write down the reported PROTEASE % INHIB. of CCCC1(CCc2ccc(F)cc2)CC(O)=C(C(c2cccc(NS(=O)(=O)c3ccc(C#N)cc3)c2)C(C)(C)C)C(=O)O1 (stereo not drawn) [Example 328] , test system: HIV-1 protease (Human immunodeficiency virus type 1 group M subtype B, UniProt P04585).
Response line: 79.47%

Prompt line: Try the molecule CCC[C@@]1(CCc2ccc(F)cc2)CC(O)=C([C@@H](c2cccc(NS(=O)(=O)c3ccc(N)cn3)c2)C(C)(C)C)C(=O)O1 (single isomer, unassigned) [Example 316]
Response line: 85.02%

Prompt line: Try the molecule CCCC1(CCC)CC(O)=C(C(c2cccc(NS(=O)(=O)c3cn(C)cn3)c2)C(C)(C)C)C(=O)O1 (single isomer, unassigned) [Example 319]
Response line: 32.65%

Prompt line: Try the molecule CCC[C@@]1(CCc2ccccc2)CC(O)=C([C@H](CC)c2cccc(NS(=O)(=O)c3ccc(N)cn3)c2)C(=O)O1 (single isomer, unassigned) [Example 314]
Response line: 96.14%

Prompt line: Try the molecule CCC[C@@]1(CCc2ccccc2)CC(O)=C([C@H](CC)c2cccc(NS(=O)(=O)c3ccc(N)cn3)c2)C(=O)O1 (single isomer, unassigned) [Example 315]
Response line: 87.25%

Prompt line: Try the molecule CC(C)CC1(CC(C)C)CC(O)=C(C(c2cccc(NS(=O)(=O)c3cn(C)cn3)c2)C(C)(C)C)C(=O)O1 (racemic) [Example 305]
Response line: 110.76%

Prompt line: Try the molecule CCCC1(CCc2ccccc2)CC(O)=C(C(c2cccc(NS(=O)(=O)c3ccc(C#N)cn3)c2)C2CC2)C(=O)O1 (stereo not drawn) [Example 311]
Response line: 91.49%

---

Target: UniProtKB P04585
Experiment: biochemical
Conditions: Table I; Dose 0.123 μM; read-out: Protease % Inhib
OBSERVATION TYPE: inhibition at 0.123 µM
Quick note: number first, unit second.

Example entries and their recorded answers appear below.
# COMPOUND, inhibition at 0.123 µM
measured = [
    ("CCC(CCN=[N+]=[N-])c1cc(O)c(C(c2cccc(NS(=O)(=O)c3cn(C)cn3)c2)C2CC2)c(=O)o1 (stereo not shown)", "105%"),
    ("CC(C)CC(c1cccc(NS(=O)(=O)c2cn(C)cn2)c1)c1c(O)c2c(oc1=O)CCCCCC2 (single isomer, unassigned) [Example 9]", "99.1%"),
    ("CCCC1(CCc2ccc(F)cc2)CC(O)=C(C(c2cccc(NS(=O)(=O)c3cn(C)cn3)c2)C(C)(C)C)C(=O)O1 (stereo not shown)", "70%"),
]

Prompt line: Which value of inhibition at 0.123 µM has been reported for CC[C@@H](Cc1ccccc1)c1cc(O)c(C(c2cccc(NS(=O)(=O)c3cn(C)cn3)c2)C2CC2)c(=O)o1 (single isomer, unassigned) in the records?
Response line: 98.3%

Prompt line: Try the compound CC(C)(C)C(C1=C(O)CC(CCC2CC2)(CCC2CC2)OC1=O)c1cccc(NS(=O)(=O)c2ccc(C#N)cn2)c1 (stereo not shown)
Response line: 33.2%

Prompt line: Try the compound Cn1ccnc1S(=O)(=O)Cc1cccc(C(c2c(O)c3c(oc2=O)CCCCCC3)C2CC2)c1 (stereo not shown)
Response line: 77.6%

Prompt line: Try the compound CCCC1(CCc2ccccc2)CC(O)=C(C(CC)c2cccc(NS(=O)(=O)c3ccc(C#N)cc3)c2)C(=O)O1 (stereo not shown)
Response line: 59.6%

Prompt line: Try the compound CCC(CC1CCCOC1)c1cc(O)c(C(c2cccc(NS(=O)(=O)c3cn(C)cn3)c2)C2CC2)c(=O)o1 (stereo not shown) [Example 145B]
Response line: 81.8%

Prompt line: Try the compound CN(c1cccc(C(c2c(O)c3c(oc2=O)CCCCCC3)C2CC2)c1)S(=O)(=O)c1ccc(F)cc1 (stereo not shown)
Response line: 18.4%

Prompt line: Try the compound N#Cc1ccc(S(=O)(=O)Nc2cccc(C(c3c(O)cc(C(CC4CC4)CC4CC4)oc3=O)C3CC3)c2)cc1 (stereo not shown)
Response line: 91.2%
